Measured EC50 of individual entries
- MEASUREMENT TARGET: S1P1 (Homo sapiens, UniProt P21453)
- Sequence (P21453 whole entry): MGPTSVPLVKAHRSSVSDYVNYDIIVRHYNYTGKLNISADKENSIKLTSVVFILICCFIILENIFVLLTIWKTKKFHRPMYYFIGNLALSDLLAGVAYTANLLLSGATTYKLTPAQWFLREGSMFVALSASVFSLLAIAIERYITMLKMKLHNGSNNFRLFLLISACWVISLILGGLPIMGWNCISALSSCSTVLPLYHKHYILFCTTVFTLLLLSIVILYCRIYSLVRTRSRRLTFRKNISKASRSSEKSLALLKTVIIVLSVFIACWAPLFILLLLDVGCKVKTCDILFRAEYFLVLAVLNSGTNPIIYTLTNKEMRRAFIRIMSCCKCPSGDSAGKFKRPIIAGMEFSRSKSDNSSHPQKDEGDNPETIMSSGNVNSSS
- PROCEDURE TEXT: S1P1 internalization assay in S1P1-U2OS cells (cell imaging)
- CONDITION SUMMARY: U2OS cells expressing S1P1-EGFP, 384-well format
Where a name gives a salt, the structure may show the parent alone.
QUANTITY MEASURED: EC50

Cc1ccccc1-c1ccc(-c2nc(-c3ccc(CN(C)[C@H](CO)C(=O)O)cc3)no2)cc1C(F)(F)F [Example 72] : 31.9 nM
CC[C@@H](C(=O)O)N(C)Cc1cccc(-c2noc(-c3ccc(-c4ccccc4C)c(C(F)(F)F)c3)n2)c1 [Example 86] : 39.7 nM
Cc1ccccc1-c1ccc(-c2nc(-c3ccc([C@H](C)NCC(=O)O)cc3)no2)cc1C(F)(F)F [Example 21, hydrochloride salt] : 11.2 nM
